Target: SCRIB_2, Q14160
Sequence (Q14160 857-960): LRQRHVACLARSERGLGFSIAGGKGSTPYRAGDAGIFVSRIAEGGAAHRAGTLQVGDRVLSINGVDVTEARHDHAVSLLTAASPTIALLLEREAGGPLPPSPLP
Assay: holdup assay
Design: key: below the threshold = too weak to quantify, mostly under pKd 3.1 to 4
Conditions: plain residues with an end cap or a label only (N-terminal biotin on a linker: ttds)
Give met when the value for pKd is at least 4. Give not met when it is less.

# binder, classAssignment
records = [
    ("RLQRRRETQV [HPV18-E6, P06463]", "met"),
    ("NDPAWDETNL [ARHGEF7, Q14155;Q14155-1]", "met"),
    ("EVVHTPETSV [SLC16A3, O15427]", "met"),
]

API: above_or_equal(metric=pKd, cutoff=4) for item SGSRPSATVV [HPV73-E6, Q82005]
not met

API: above_or_equal(metric=pKd, cutoff=4) for item VDFPPKESSL [ACVR2A, P27037]
not met

API: above_or_equal(metric=pKd, cutoff=4) for item RLPKIKETTV [FRMPD4, Q14CM0]
met

API: above_or_equal(metric=pKd, cutoff=4) for item QRQARSETLV [HPV59-E6, Q81964]
met

Provenance of the data: paper PMC9482650
